Reported perc_remaining values are given for each entry in this list.
# TEST_NAME: Hepatic microsomal stability, MLM
# Assay type: in vitro ADME
# STATED_CONDITIONS: In vitro mouse liver microsomal stability
Give your result in % as a bare value.

{"COMPOUND": "CC(C)[C@@H](Nc1ncnc2[nH]c(-c3cnn(CC(N)=O)c3)cc12)c1ccc2c(n1)OCCO2 [ASAP-0008646]", "perc_remaining [%]": 83.0}
{"COMPOUND": "COc1ccc([C@@H](Cc2nnn[nH]2)NC(=O)c2ncnc3[nH]ccc23)cc1", "perc_remaining [%]": 96.0}
{"COMPOUND": "CNC(=O)c1c[nH]c2ncnc(N[C@H](c3ccc4c(c3)S(=O)(=O)CCC4)C(C)C)c12 (single isomer, unassigned) [ASAP-0011153]", "perc_remaining [%]": 0.0}
{"COMPOUND": "CC(C)[C@@H](Nc1ncnc2[nH]c(-c3cnn(C)c3C#N)cc12)c1ccc2c(n1)NC(=O)CO2 (single isomer, unassigned) [ASAP-0011180]", "perc_remaining [%]": 5.0}
{"COMPOUND": "CC(C)[C@@H](Nc1ncnc2[nH]c(-c3cnn(CC(=O)N(C)C)c3)cc12)c1ccc2c(c1)S(=O)(=O)CCC2 [ASAP-0013747]", "perc_remaining [%]": 59.0}
{"COMPOUND": "CC(C)[C@H](Nc1ncnc2[nH]c(-c3cnn(C)c3C#N)cc12)c1ccc2c(c1)NC(=O)CO2 (single isomer, unassigned) [ASAP-0013255]", "perc_remaining [%]": 27.0}

Could you now consider this next compound?
Name the recorded perc_remaining of the item CCNC(=O)c1cc2c(N[C@@H](c3ccc4c(c3)S(=O)(=O)CCO4)C(C)C)ncnc2[nH]1 (racemic) in your answer. 66.0

###

Reported perc_remaining_no_cofactor values are given for each entry in this list.
# TEST_NAME: Hepatic microsomal stability, MLM
# Format: in vitro ADME
# STATED_CONDITIONS: In vitro mouse liver microsomal stability; no cofactor
Give your result in % as a bare value.

Some solved entries appear below for comparison.
{"COMPOUND": "CC(C)[C@@H](Nc1ncnc2[nH]c(-c3cnn(C)c3C#N)cc12)c1ccc2c(c1)S(=O)(=O)CCC2 [ASAP-0008651]", "perc_remaining_no_cofactor / %": 96.0}
{"COMPOUND": "O=C(Nc1ccccc1)Nc1ccc(C(=O)NC2c3cccc(O)c3CC2C(=O)O)cc1 (stereo not drawn) [ASAP-0000132]", "perc_remaining_no_cofactor / %": 99.0}
{"COMPOUND": "CC(C)[C@@H](Nc1ncnc2[nH]c(-c3cnn(CC(=O)N(C)C)c3)cc12)c1ccc2c(c1)S(=O)(=O)CCC2 (racemic) [ASAP-0008668]", "perc_remaining_no_cofactor / %": 92.0}

Name the recorded perc_remaining_no_cofactor of the item CCNC(=O)c1cc2c(N[C@H](c3ccc4c(c3)S(=O)(=O)CCC4)C(C)C)ncnc2[nH]1 (racemic) [ASAP-0008711] in your answer. 95.0

Name the recorded perc_remaining_no_cofactor of the item CC(C)[C@@H](Nc1ncnc2[nH]c(-c3cnn(C)c3)cc12)c1ccc2c(c1)S(=O)(=O)CCC2 [ASAP-0008678] in your answer. 102.0

Name the recorded perc_remaining_no_cofactor of the item Cn1ncc(-c2cc3c(N[C@H](c4ccc5c(n4)OCCO5)C(C)(C)C)ncnc3[nH]2)c1C#N (racemic) [ASAP-0008645] in your answer. 101.0

Name the recorded perc_remaining_no_cofactor of the item COc1ccc2c(c1)CCN(c1ncnc3[nH]ccc13)[C@H]2C(C)C (racemic) [ASAP-0000502] in your answer. 83.0

###

# TARGET_ENTITY: UniProt P0DTD1
# TEST_NAME: biochemical
# Type: biochemical
# STATED_CONDITIONS: SARS-CoV-2 nsp3 macrodomain TR-FRET single point, concentration 50.0 uM
QUANTITY_MEASURED: perc_inhibition_mean (%)
Give your result in % as a bare value.

Some solved entries appear below for comparison.
{"MOLECULE": "C#Cc1cccc(NC(=O)CN(C)c2ncnc3[nH]ccc23)c1 [ASAP-0000024]", "UNIT_LABEL": "%", "ASSAY_RESULT": 4.398}
{"MOLECULE": "Cc1nn(Cc2ccccc2)c(C)c1CNc1ncnc2[nH]ncc12 [ASAP-0000084]", "UNIT_LABEL": "%", "ASSAY_RESULT": -1.755}
{"MOLECULE": "c1nc(N2CCC[C@@H](c3nc4c(s3)CCC4)C2)c2c[nH]nc2n1 [ASAP-0000055]", "UNIT_LABEL": "%", "ASSAY_RESULT": 3.826}
{"MOLECULE": "CCC[C@@](C)(NC(=O)c1ncnc2[nH]ccc12)C(=O)OC [ASAP-0000082]", "UNIT_LABEL": "%", "ASSAY_RESULT": -6.621}
{"MOLECULE": "O=C(OCc1cccc(Cl)n1)c1ncnc2[nH]ccc12 [ASAP-0000193]", "UNIT_LABEL": "%", "ASSAY_RESULT": 11.426}

Check UniProt P0DTD1 data and give perc_inhibition_mean for Cn1c(C(=O)NCCNC(=O)c2ccco2)cc2c(=O)n3ccccc3nc21 [ASAP-0000126] . -4.472

Check UniProt P0DTD1 data and give perc_inhibition_mean for O=C1CN(c2ccc(Nc3ncnc4[nH]ccc34)cn2)CCN1 [ASAP-0000037] . -16.793

Check UniProt P0DTD1 data and give perc_inhibition_mean for Cc1cncc(NCc2csc(-c3ccccn3)n2)c1 [ASAP-0000122] . -5.024

Check UniProt P0DTD1 data and give perc_inhibition_mean for Cc1ccnc(C2CCN(c3ncnc4[nH]ccc34)CC2)n1 [ASAP-0000050] . 3.465

Check UniProt P0DTD1 data and give perc_inhibition_mean for O=C(OCc1ncccc1Cl)c1ncnc2[nH]ccc12 [ASAP-0000120] . 5.063

Check UniProt P0DTD1 data and give perc_inhibition_mean for Cc1cc(NCc2csc(C)n2)ncn1 [ASAP-0000106] . -4.644

Check UniProt P0DTD1 data and give perc_inhibition_mean for FC(F)(F)Oc1ccccc1-c1ncnc2[nH]ccc12 [ASAP-0000245] . -3.369

###

# System: CYP
# TEST_NAME: CYP inhibition
# Assay type: in vitro ADME
# STATED_CONDITIONS: isoform 2D6; In vitro CYP inhibition pooled
QUANTITY_MEASURED: IC50

{"COMPOUND": "COc1ccc([C@H](Cc2nnn[nH]2)NC(=O)c2ncnc3[nH]ccc23)cc1 [ASAP-0015381]", "QUANTITY_MEASURED": "IC50", "ASSAY_RESULT": "> 50 µM"}
{"COMPOUND": "C[C@H](C(=O)O)[C@@H](NC(=O)c1ncnc2[nH]ccc12)c1ccc(Br)cc1 [ASAP-0014722]", "QUANTITY_MEASURED": "IC50", "ASSAY_RESULT": "> 50 µM"}

Check CYP data and give IC50 for CC(C)[C@H](Nc1ncnc2[nH]ccc12)c1ccc2c(c1)S(=O)(=O)CCC2 [ASAP-0008674] . > 50 µM

###

# TEST_NAME: Permeability Papp (AB) MDR1/MDCKII
# STATED_CONDITIONS: In vitro MDR1-MDCKII permeability, A to B, mean
Reported papp_a_to_b_mean values are given for each entry in this list.
Give your result in ×10⁻⁶ cm/s as a bare value.

{"COMPOUND": "CC(C)[C@@H](Nc1ncnc2[nH]c(-c3cnn(C)c3C#N)cc12)c1ccc2c(n1)NC(=O)CO2 (single isomer, unassigned) [ASAP-0011180]", "UNIT_LABEL": "×10⁻⁶ cm/s", "ASSAY_RESULT": 9.64}
{"COMPOUND": "CC(C)[C@H](Nc1ncnc2[nH]cc(C(N)=O)c12)c1ccc2c(c1)OCCO2 (racemic)", "UNIT_LABEL": "×10⁻⁶ cm/s", "ASSAY_RESULT": 11.1}

Could you now consider this next compound?
Name the recorded papp_a_to_b_mean of the item CC(C)[C@@H](Nc1ncnc2[nH]c(-c3cnn(CC(=O)N(C)C)c3)cc12)c1ccc2c(c1)S(=O)(=O)CCC2 (racemic) in your answer. 0.67

###

# TEST_NAME: In vitro kinetic solubility
# STATED_CONDITIONS: In vitro kinetic solubility, ph 7.4
QUANTITY_MEASURED: solubility_mean (µM)
Give your result in µM as a bare value.

Some solved entries appear below for comparison.
{"MOLECULE": "CC(C)[C@H](Nc1ncnc2[nH]c(-c3cnn(C)c3)cc12)c1ccc2c(c1)S(=O)(=O)CCC2 (single isomer, unassigned)", "ASSAY_RESULT": 111}
{"MOLECULE": "CC(C)[C@H](Nc1ncnc2[nH]c(-c3cnn(C)c3C#N)cc12)c1ccc2c(c1)NC(=O)CO2 (racemic) [ASAP-0008576]", "ASSAY_RESULT": 69}
{"MOLECULE": "CC(C)[C@@H](Nc1ncnc2[nH]c(C(=O)N[C@H]3CCN(C)C3)cc12)c1ccc2c(c1)S(=O)(=O)CCC2 (single isomer, unassigned)", "ASSAY_RESULT": 392}
{"MOLECULE": "CC(C)[C@@H](Nc1ncnc2[nH]c(-c3cnn(CC(N)=O)c3)cc12)c1ccc2c(c1)S(=O)(=O)CCC2", "ASSAY_RESULT": 335}

Could you now consider this next molecule?
Name the recorded solubility_mean of the item CC(C)(C)[C@H](Nc1ncnc2[nH]c(-c3cnn(CC(N)=O)c3)cc12)c1ccc2c(n1)OCCO2 (racemic) [ASAP-0008648] in your answer. 48

Entry source: paper doi:10.1101/2024.08.19.608619
